test: yeast display, Sf9 membrane polyspecificity reagent, FACS + sequencing; frameworks hold sequencing errors
endpoint: polyreactivity (PSR sort gate)

{"columns": ["seq-string", "endpoint", "data-value"],
 "data": [
  ["QVQLVESGGGLVQAGGSLRLSCAASGITFTSYAMGWYRQAPGKERELVAAISWSGDRTYYADSVKGRFTISRDNAKNTVYLQMNSLKPEDTAVYYCAADQFTGSVWAYYYWGQGTQVTVSS", "polyreactivity (PSR sort gate)", "high polyreactivity"],
  ["QVQLEESGGGLVQAGGSLRLSCAASVSNLYYYPMGWYRQATRKERELVASIRNGGSTYYADSVKGLFTISRDNAKNTVYLQMNSLKPEDTAVYYCNARVSRSFRARYNYWGQGSQVTVSS", "polyreactivity (PSR sort gate)", "high polyreactivity"],
  ["QVQLVESGGGLVQAGGSLRLSCAASGRTFRSYAMGWYRQAPGKERELVAAISRGGRTNYADSVKGRFTISRDNAKNTVYLQMNSLKPEDTAVYYCAARLPYLGGYDYWGQGTQVTVSS", "polyreactivity (PSR sort gate)", "high polyreactivity"],
  ["QVQLVESGGGLVQAARSHRVSCAASGSIFWGNVKGWYRQAPGNESELVAAINSGGSTYYADSVKGRFTISRDNAKNTVYLQMNSLIPEDTAVYYCAAAINRYRGTFNYWGQGTQVSVSS", "polyreactivity (PSR sort gate)", "high polyreactivity"]
]}

---

test: yeast display, Sf9 membrane polyspecificity reagent, FACS + sequencing; frameworks hold sequencing errors

{"columns": ["seq-string", "polyreactivity (PSR sort gate)"],
 "data": [
  ["QVQLVESGGGLVQAGGSLRLSCAASGSTFYYYAMGWYRQATGKERELVAAISGRGGSTYYADSVKGRFTISRDNAKNTVYLQMNSLKPEDTAVYYCNKRRAAGGFPYDYWGQGTQVTVSS", "high polyreactivity"],
  ["QVQLVESGGGLVQAGGSLRLSCAASGFIFGRNAMGWYRQAPGKERELVAGISSRGGRTYYADSVKGRFTISRDNAKNTVYLQMNSLKPEDTAVYYCAAAGLTDYVRYDYWGQGTQVTVSS", "high polyreactivity"],
  ["QVQLVESGGGLVQAGGSLRLSCAASGSTIADKAMGWYRQAPGKERELVAAITRSGVRTYYADSVKGRFTISRDNAKNTVYLQMNSLKPEDTAVYYCAKRTYPSRIYDYWGQGTQVTVSS", "low polyreactivity"],
  ["QVQLVESGGGLVQAGGSLRLSCAASGFTFGSYAMGWYRQAPGKDRELVARISSDGSTNYADSVKGRFTISRDYAKNTVYLQMNSLKPEDTAVYYCAVRHRYTRAYWGRDYWGQGTQVTVSS", "low polyreactivity"],
  ["QVQLVESVGGLVQAGGSLRLSCAASGRIFRFYAMGWYRQAPGKERELVAAISSSGVRTYYADSVKGRFTISRDNAKKTVYLQINSLTPEDTAVYYCAASRHFARHRGYYFRYDYWGQGTQVTVSS", "high polyreactivity"],
  ["QVQLVESGGGLVQAGGSLRLSCAASGRTFSSYAMGWYRQEPGKERELVARINSDGGRTYYADSVKGRFTISRDNAKNTVYLQMNSLKPEDTAVYYCAKRVVRGKVDYWGQGTQVTVSS", "low polyreactivity"],
  ["QVQIVESGGGLVQAGGSLRLSCAASGRTVKFYAMGWYRQAPGKERELVARITSNSGSTYYADSVKGRFTISRDNAKNTVYLQMNSLKPEDTAVYYCAARGRYRQFNYWGQGTQVTVSS", "high polyreactivity"],
  ["QVQLVESGGGLVQAGGSLRLSCAASGFIFSSIAMGWYRPAPGKEREFVAAITSGGITYYADSLKGRFTISRDNAKNTVYLQMNSLKPEDTAVYYCAAVLSYQTPKYYRWRYGYWGQGTQVTVSS", "low polyreactivity"],
  ["QVQLVDSGGGLVQAGGSLRLTCAASGIIIPVYAMGWYRQAPGKERELVAAISSGGSTYYADSVKGRFTISRDNAKNTVYLQINSLKPEDTAVYYCAARKVRYPYRWYDYWGQGTQVTVSS", "high polyreactivity"],
  ["QVQLVESGGGLVQAGGSLRLSSAACGTIFVLNAMGWYRPAPGKERELVAAITNVGSTYYADSVKGRFTISRDNAKNTFYLQMNSLKPEDTAVYYCNADPGEVLVGYDYWGQGTQVTVSS", "low polyreactivity"],
  ["QVQLVESGGGLVQEGGSLRLSCAASGFTIRTYAMGWYRQAPGKERELVAAINTGGGTNYADSVKGRFTISRDNAKNTVYLQMNSLKPEDTAVYYCNSVHYYYYYWYSLYDSWGKGTQVTVSS", "high polyreactivity"],
  ["QVQLVESGGGLVQAGGSLRLSCAASGRTFGTYAMGWYRQAPGKERELVARISYTGGSTSYADSVKGRFTISRDNAKNTVYLQMNSLKPEDTAVYYCNASSRSGSWRFYYWGQGTQVTVSS", "high polyreactivity"],
  ["QVQLVESGGGLVQAGGSLRLSCAASGIIFQAYAMGWYRQAPGKERELVAAISYSGGSTYYADSVKGRFTISRDNAKNTVYLQMNSLKPEDTAVYYCAATFYGYFDSVFSWGYYYWGQGTQVTVSS", "low polyreactivity"],
  ["QVQLVESGGGLVKAGGSLRLSCAASGRTFASYAMGWYRQAPGKERELVAVITRGGRTYYADSVKGRFTISRDNAKNTVYLQMNSLKPEDTAVYYCNAAYYSSSYLEDYWGQGTQVTVSS", "high polyreactivity"],
  ["QVQLLESGGGLVQAGGSLRLSCAATRRIFEYNGMGWYRQAPGKDSELVAAIEWNGSPTYADSVKGRFTIARDNAKNTVYLLMNSLKPEDTSVYYCAKAYPGKAPKYDYWGQGTQVTVSS", "low polyreactivity"],
  ["QVQLVESGGGLVQAGGSLRLSCAASGPTLHAYTMGWYRQAPGKERELVAAITRGGGNTYYADSVKGRFTISRDNAKNTVYLQMNSLKPEDTAVYYCNADVSGYLWYEYDYWGQGTQVTVSS", "low polyreactivity"],
  ["QVQLVESGGGLVQAGGSLRLSCAASGITFSRYAMGWYRQAPGKERELVASISTSGGSTYYADSVKGRFTISRDNAKNTVYLQMNSLKPEDTAVYYCAASVWSSRRFGYWGQGTQVSVSS", "high polyreactivity"],
  ["QVQLVESGGGLVQAGGSLRLSCAASGRTFRFNTMGWYRQAPGKERELVAAITSSGGSTYYADSVKGRFTISRDNAKNTVYLQMNSLKPEDTAVYYCAKRFYYRNRFDYWGQGTQVTVSS", "low polyreactivity"],
  ["QVQLEESGGGLVQAGGSLRLSCAASGFTFYYYTMGWYRQAPGKERELVAAITWRGGSTNYADSVKGRFTISRDNAKNTVYLQMNSLKPEEPAVYYCAAVTYWFWPGMDYWGQGTQVTVSS", "low polyreactivity"],
  ["QVQLVESGGGLVQAGGSLLLSCAASGFTLEKNAMGWYRTAPGKERELVADISSTDSTNYADSVKGRFTISRDNAKITVYFQMNSVKPEDTAVYYCGRYDGPGTEEFDYWGQGSQVTVSS", "low polyreactivity"],
  ["QVQLVESGGALVQAGGSLRLSCAASAGNFTGYAMGWSRQAPGKERELVATITSGGSTNYADSVKGRFTISRDNAKNSFYFQLNSLKPEDTAVYYCALDYIGDTPIWQYDYWGQGTQVTVSS", "low polyreactivity"]
]}

---

test: yeast display, Sf9 membrane polyspecificity reagent, FACS + sequencing; frameworks hold sequencing errors

{"columns": ["seq-string", "polyreactivity (PSR sort gate)"],
 "data": [
  ["QVQLVESGGGLVQAGGSLRLSCAASGLTLSGYAMGWYRQAPGKERELVAAISSTGGSTYYADSVKGRFTISRDNAKNTVYLQMNSLKPEDTAVYYCAKGYSPTRVRLRYPRYDTYNHWGQGTQVTVSS", "high polyreactivity"],
  ["QVQLVESGGGLVQAGGSLRLSCAASGSIFKFNTMGWYRQAPGKERELVASITRVGSTYYADSVKGRFTISRDNAKNTVYLQMNSLKPEDTAVYYCAARFLYYTYKTFRTYDYWGQGTQVSVSS", "high polyreactivity"],
  ["QFQLVESRGGLVKAGGSLRLTCAASGSILYQNTMGWYRQATGKERELVAAISGSGSRTYYADSVKGRFTISRDNAKNTVYLQMNSLKPEDTAVYYCAASGYWPFRSGFGYWGQGTQVTVSS", "high polyreactivity"],
  ["QVQLVESGGGLVQAGGSLRLSCAASGSTFKLYAMGWYRPAPGKERELVAAITSNCGRTYYADSVKGRFTISRDIAKNTVYLQMNSLKPEDTAVYYCAARRYAPAGGYDYWGQGTQVTVSS", "high polyreactivity"],
  ["QVQLVESGGGLVQAGGSLRLSCAASGRIFARYAMGWYRQAPGKERELVAAITNVGSTYADSVKGRFTISRDNAKNTVYLQMNSLKPEDTAVYYCAARSKYDQVRATFWLFDYWGQGTQVTVSS", "low polyreactivity"],
  ["QVQLVESGGGLVQAGGSLRLSCAASGRIFYKYAMGWYRQAPGKERELVAVINRGGTTYYADSVKGRFTISRDNGKNTVYLQMNSLKPDDTAVYYCNTVADYRRFGYWGQGTQVTVSS", "high polyreactivity"],
  ["QVQLVESGGGLVQAGGSLRLSCAASGSTFDRNVMGWYRQAPGKERELVAAISRVSSTNYSDSVKGRFTISRDNAKNTVYLQMNSLKPEDTAVYYCAADRAGSIMNYWGQGTQVTVSS", "low polyreactivity"],
  ["QVQLVESGGGLVQAGGSLRLSCAASGRTFDAYAMGWYRQAPGKERELVAAISSGGSTNYADSVKGRFTISRDHAKNTVYLQKNSLKPEDTAVYYCAAEYIQYLFYSVRVAYDYWGQGTQVTVSS", "low polyreactivity"],
  ["QVQLVESGGGLVQAGGSLRLSCAASGSTVPQYTMGWYRQAPGKERELVAAITKSGGSTYYADSVKGRFTISRDNAKNTVYLQMNSLKPEDTAVYYCNRRWGWRLYDYWGQGTQVTVSS", "high polyreactivity"],
  ["QVQLVESGGGLVQAGGSLRLSCAASGIIFGYYAMGWSRKAPGKERELVAAISRGGNTNYADSVKGRFTISRDNAKNTVYLQMNSLKPEDTAVYYCAADFWSRIIYFYAVDVDYWGQGTQVTVSS", "low polyreactivity"],
  ["QVQLVESGGGLVQAGGRLRLSCAASGSFFGGSGMGWYRQAPGKERELVAAITSGSSTYYADSVNGRFTISRDNAKNTVYLQMNSLKPEDSAVYYCAARPYPHSAYEGDYWGRGTQVTVSS", "low polyreactivity"]
]}
